Biological target: B1R receptor of the rat (Rattus norvegicus)
Construct: host or cells: CHO K1 cells (Chinese hamster ovary), stably transfected
Sequence (P97583 1-337): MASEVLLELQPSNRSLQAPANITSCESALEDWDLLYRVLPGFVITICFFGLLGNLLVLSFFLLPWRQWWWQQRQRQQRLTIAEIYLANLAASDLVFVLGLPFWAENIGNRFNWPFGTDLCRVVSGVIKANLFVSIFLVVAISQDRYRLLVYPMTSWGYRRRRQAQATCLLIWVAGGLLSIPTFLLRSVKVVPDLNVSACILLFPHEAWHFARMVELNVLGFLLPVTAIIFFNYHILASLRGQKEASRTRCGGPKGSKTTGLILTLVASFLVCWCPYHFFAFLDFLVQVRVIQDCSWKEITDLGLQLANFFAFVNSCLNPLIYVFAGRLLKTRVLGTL
Test: Functional study on the bradykinin receptor 1 (B1R), FLIPR Ca2+ assay, rB1R cells
Format: cell-based
Conditions: CHO-K1, test substance 10 μM, agonist Des-Arg9-bradykinin 100 nM, % inhibition compared with the maximum achievable inhibition, read-out: B1R Antagonism, rat [10 μM] % Inhibition
assay_endpoint: inhibition at 10 µM (%)
Numbers only, in %.

Worked examples, 5 compounds total:
>>> print(df.to_string())
                                   compound  measured_value
0  COc1cc(C)c(S(=O)(=O)N2CCCCC2COCC(=O)Nc2cccc(CN3CCCCC3)c2)c(C)c1 (stereo not drawn)             104
1  CN1CCC(N2CCN(C(=O)COCC3CCCCN3S(=O)(=O)c3c(Cl)cc(Cl)cc3Cl)CC2)CC1 (stereo not drawn)             102
2  COc1cc(C)c(S(=O)(=O)N2CCCCC2COCC(=O)N2CCN(Cc3cnc(N(C)c4ccc(F)cc4)nc3)CC2)c(C)c1 (stereo not drawn)             102
3  O=C(COCC1CCCN1S(=O)(=O)c1c(Cl)cccc1Cl)N1CCN(CCc2ccccc2)CC1 (stereo not drawn)             101
4  O=C(COCC1CCCCN1S(=O)(=O)c1ccc(Cl)c(Cl)c1)N1CCN(Cc2ccc3c(c2)OCO3)CC1 (stereo not drawn)               0

Record inhibition at 10 µM per entry; entries follow.
1. COc1cc(C)c(S(=O)(=O)N2CCCC2COCC(=O)N(Cc2ccccc2)c2cc(C)ccn2)c(C)c1 (stereo not drawn)
2. COc1cc(C)c(S(=O)(=O)N2Cc3ccccc3CC2COCC(=O)N2CCC(N3CCN(C)CC3)CC2)c(C)c1C (stereo not drawn)
3. CN1CCC(N2CCN(C(=O)COCC3CCCCN3S(=O)(=O)c3c(Cl)nc4sccn34)CC2)CC1 (stereo not drawn)
4. COc1cc(C)c(S(=O)(=O)N2CCCCC2COCC(=O)Nc2ccc3ccccc3n2)c(C)c1 (stereo not drawn)
5. COc1cc(C)c(S(=O)(=O)N2CCCCC2COCC(=O)NCc2cccc(N3CCOCC3)c2)c(C)c1 (stereo not drawn)

**Result**
1: 101; 2: 93.1; 3: 31.2; 4: 104; 5: 102

Record inhibition at 10 µM per entry; entries follow.
1. COc1cc(C)c(S(=O)(=O)N2CCCC2COCC(=O)Nc2cccc(CN3CCCCC3)c2)c(C)c1 (stereo not drawn)
2. COc1cccc(-c2cc(NC(=O)COCC3CCCCN3S(=O)(=O)c3c(C)cc(OC)cc3C)n[nH]2)c1 (stereo not drawn)
3. Cc1cc(S(=O)(=O)N2CCCCC2COCC(=O)N2CCN(C3CCN(C)CC3)CC2)c(C)s1 (stereo not drawn)

**Result**
1. 98.8
2. 108
3. 85.2
